Assayed system: DRB1*15:01
Run parameters: modification not given
Recorded metric: IC50 (µM)
Give bare numbers, in µM.

Asked: Entry DSLSSTASALGKLQD [… (position 936)] : reported IC50 = ?
Given back: 10.9
